Reference source for all entries: PubChem BioAssay AID1963960

test system: MDA-MB-468 spheroids with HUVEC/MSC, viability; experiment: Anticancer human tumor MDA-MB-468 cell line growth inhibition [PI3K]; conditions: second compound 0.1 µM; first compound 0.0316 µM; active compounds read low;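 further: spheroids exposed to agents for seven days before readout; 100% = DMSO vehicle control viability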
property: viability, T/C (%)
Write it as a number; the unit % goes unstated.

Request: Value lookup for viability, T/C; key = Cn1ncc(Cl)c1-c1cc(C(=O)NC(CN)Cc2cccc(F)c2)sc1Cl (stereo not drawn) + CC(Nc1ncnc2nc[nH]c12)c1cc2cccc(Cl)c2c(=O)n1-c1ccccc1
Response: 84.6

Request: Would you kindly repeat that for CC1(C)CCC(Nc2ncc(C(F)(F)F)c(-c3c[nH]c4c(P(C)(C)=O)c(C#N)ccc34)n2)CN1 (stereo not drawn) + COc1c(OCCCN2CCOCC2)ccc2c3n(c(=NC(=O)c4cnc(N)nc4)nc12)CCN3 ?
Response: 9.69

Request: Would you mind doing C=CC(=O)N1CCN(c2nc(=O)n(-c3c(C)ccnc3C(C)C)c3nc(-c4c(O)cccc4F)c(F)cc23)C(C)C1 (stereo not drawn) + CC(Nc1ncnc2nc[nH]c12)c1cc2cccc(Cl)c2c(=O)n1-c1ccccc1 as well?
Response: 89.3
